- Test system: erythroid progenitor cells (EPCs)
- Assay method text: Fetal hemoglobin (HbF) ELISA in day 7 erythroid progenitor cells;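 further: for fetal hemoglobin induction normalized to vehicle-treated cells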
- Format: cell-based, human
- Cond: Homo sapiens, Erythroid progenitor cell, HbF ELISA, day 7 EPCs, 5 days; read-out: EPC ELISA (pEC50 category) (converted)
Counter-ions that a name gives are not always drawn.
Quick reference for EC50 among some molecules

- Molecule: "CCc1c(C#N)c(SC(C(N)=O)c2cccc(C(F)(F)F)c2)nc(N2CCCN(C)CC2)c1C#N (stereo not shown) [Example 223]"
  Result: "1000 to 31600 nM"
- Molecule: "N#Cc1c(SC(C(N)=O)c2ccccc2)nc(N2CCC(CN3CCCC3)CC2)c(C#N)c1C1CC1 (stereo not shown) [Example 39]"
  Result: "< 316 nM"
- Molecule: "CCc1c(C#N)c(SC(C(N)=O)c2ccccc2)nc(N2CCN(CCN)CC2)c1C#N (stereo not shown) [Example 123]"
  Result: "< 316 nM"
- Molecule: "CCc1c(C#N)c(SC(C(N)=O)c2ccccc2)nc(N2CCC(n3ccnc3)CC2)c1C#N (stereo not shown) [Example 172]"
  Result: "< 316 nM"
- Molecule: "CCc1c(C#N)c(SC(C(N)=O)c2ccccc2)nc(N2CCC(NCCN)CC2)c1C#N (stereo not shown) [Example 645, dihydrochloride]"
  Result: "316 to 1000 nM"
- Molecule: "N#Cc1c(SC(C(N)=O)c2ccncc2)nc(N2CCOCC2)c(C#N)c1C1CC1 (stereo not shown) [Example 9]"
  Result: "> 31600 nM"
- Molecule: "CCc1c(C#N)c(SCc2ccc3c(c2)C(OC)(OC)C(=O)N3)nc(N2CCCN(C)CC2)c1C#N [Example 347]"
  Result: "1000 to 31600 nM"
- Molecule: "CCc1c(C#N)c(SC(C(N)=O)c2ccc(F)cc2)nc(N2CC[C@@H](N(C)C)C2)c1C#N (stereo partly shown) [Example 530]"
  Result: "1000 to 31600 nM"

input: Supply reported EC50 belonging to this molecule: CCc1c(C#N)c(SC(C(N)=O)c2ccccc2)nc(N2CCCNCC2)c1C#N (stereo not shown) [Example 112]
output: < 316 nM

input: Tell us which EC50 value is on record for CCc1c(Cl)c(SC(C(N)=O)c2ccccc2)nc(N2CCCN(C)CC2)c1Cl (stereo not shown) [Example 165]
output: > 31600 nM

input: Specify reported EC50 for the molecule shown: CCc1c(C#N)c(SC(CC)c2ccc(CNC(C)=O)cc2)nc(N2CCC(N(C)C)CC2)c1C#N (stereo not shown) [Example 332, Trifluoroacetic Acid Salt]
output: 316 to 1000 nM

input: Tell me EC50 reported for CCc1c(C#N)c(SC(C(N)=O)c2ccccc2)nc(N2CCC(NCC(C)(C)OC)CC2)c1C#N (stereo not shown) [Example 446]
output: < 316 nM
